B1: Neutrophil cytosol factor 2, residues 456 to 514; numbered along this chain, P19878 (parent)
chain: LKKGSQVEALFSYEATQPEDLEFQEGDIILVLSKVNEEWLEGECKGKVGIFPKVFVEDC

variants of: B1; assay: abundance fitness (aPCA) (normalised: wild type 0, dead -1); higher = more abundant; growth selection in yeast, the domain comes from the species named; settings: Homo sapiens
I'd appreciate it if you could supply abundance fitness values for the items below.

The reported value for LKKGSQVEALCSYEATQPEDLEFQEGDIILVLSKVNEEWLEGECKGKVGIFPKVFVEDC [F11C] in terms of abundance fitness is 0.418

The reported value for LKKGSQVEALFSYEATQPEDLEFQEGDIILVLSKVNEEWLEGECPGKVGIFPKVFVEDC [K45P] in terms of abundance fitness is -0.904

The reported value for LKKGSQVEALFSYEATQPEDLEFQEGDIILVLSKVNEEWLEGQCKGKVGIFPKVFVEDC [E43Q] in terms of abundance fitness is -0.078

The reported value for LKKGEQVEALFSYEATQPEDLEFQEGDIILVLSKVNEEWLEGECKGKVGIFPKVFVEDC [S5E] in terms of abundance fitness is 0.099

The reported value for LKKGSQVEALFSYEATQPEALEFQEGDIILVLSKVNEEWLEGECKGKVGIFPKVFVEDC [D20A] in terms of abundance fitness is -0.198

The reported value for LKKGSQVEALFSYEATQPEDLEFQEGDIILVLSKVNEEWLEGECKGWVGIFPKVFVEDC [K47W] in terms of abundance fitness is -0.416

The reported value for LKKGSQVEALFSYEATQPEDLEFQEGDIILYLSKVNEEWLEGECKGKVGIFPKVFVEDC [V31Y] in terms of abundance fitness is -0.479

The reported value for LKKVSQVEALFSYEATQPEDLEFQEGDIILVLSKVNEEWLEGECKGKVGIFPKVFVEDC [G4V] in terms of abundance fitness is -0.452

The reported value for LKKGSQVEALFSYEATQPEDLEFQEGDIILVLSFVNEEWLEGECKGKVGIFPKVFVEDC [K34F] in terms of abundance fitness is -0.459

The reported value for LKKGSQVEALFSYEATQPEDLEFQEGDIMLVLSKVNEEWLEGECKGKVGIFPKVFVEDC [I29M] in terms of abundance fitness is -0.686

The reported value for LKKGSQVEALFSYEATQPEDLEFQEGDIILVLSKVNEEWLEGECKYKVGIFPKVFVEDC [G46Y] in terms of abundance fitness is -0.352

The reported value for LKKGSQVEALFSYQATQPEDLEFQEGDIILVLSKVNEEWLEGECKGKVGIFPKVFVEDC [E14Q] in terms of abundance fitness is 0.068

The reported value for LKKGSQVEALFSYEATQPEDLEFQEGDIILNLSKVNEEWLEGECKGKVGIFPKVFVEDC [V31N] in terms of abundance fitness is -0.092

The reported value for LKKGSQVEALFSYEATQPEDLEFQEGDIILVLSKVNEEWLTGECKGKVGIFPKVFVEDC [E41T] in terms of abundance fitness is -0.527

The reported value for LKKGSQVEALFSYEATQPEDLEFQEGDIILVLSKVNEEWLEGECKGKVGIFPKVFCEDC [V56C] in terms of abundance fitness is -0.52

The reported value for LKKGSQVEALFSYEATQPEDLCFQEGDIILVLSKVNEEWLEGECKGKVGIFPKVFVEDC [E22C] in terms of abundance fitness is -0.627

The reported value for LKKGSQVEALFSYEATQPEDLKFQEGDIILVLSKVNEEWLEGECKGKVGIFPKVFVEDC [E22K] in terms of abundance fitness is -0.473

The reported value for LKKGSQVEALFSYEATEPEDLEFQEGDIILVLSKVNEEWLEGECKGKVGIFPKVFVEDC [Q17E] in terms of abundance fitness is -0.504

The reported value for LKKGSQVEALFSYEATQPEDLDFQEGDIILVLSKVNEEWLEGECKGKVGIFPKVFVEDC [E22D] in terms of abundance fitness is -0.602

The reported value for LKKGSQVEALFSYEATQPEDLEFQHGDIILVLSKVNEEWLEGECKGKVGIFPKVFVEDC [E25H] in terms of abundance fitness is 0.447

The reported value for LKKGSQVEALFSYEATQPEDLEFIEGDIILVLSKVNEEWLEGECKGKVGIFPKVFVEDC [Q24I] in terms of abundance fitness is -0.688

The reported value for LKKGSQVEALFSYEATQPEDLEFQEGDIILVLSMVNEEWLEGECKGKVGIFPKVFVEDC [K34M] in terms of abundance fitness is -0.326

Sourced from the Human Domainome abundance scans (Beltran et al. 2025)
